# study target: human kidney renin (Homo sapiens)
# Construct: Human renin was prepared from human kidney
# assay: Radioimmunoassay Screen for Renin Inhibitors (in vitro angiotensin I generation, quantitated by radioimmunoassay)
# stated conditions: purified human plasma angiotensinogen, pH 6.0, one hour at 37° C., read-out: Renin Inhibiton IC50
pIC50: −log10 of the molar value.
Respond with TRUE for pIC50 values of 7 and above, FALSE for values below.

smiles data | label value
CC(C)C[C@H](NC(=O)[C@@H](CC(=O)OC(C)(C)C)Cc1cccc2ccccc12)C(=O)N[C@@H](CC(C)C)[C@@H](O)c1nccs1 | FALSE
CC(C)C[C@H](NC(=O)[C@H](Cc1ccccc1)OC(=O)N1CCC(=O)CC1)C(=O)N[C@@H](CC1CCCCC1)[C@@H](O)c1ccco1 | TRUE
COC(CNC(=O)C[C@@H](Cc1cccc2ccccc12)C(=O)N[C@@H](CC(C)C)C(=O)N[C@@H](CC(C)C)[C@@H](O)c1nccs1)OC | FALSE
CC(C)C[C@H](NC(=O)[C@@H](CC(=O)NCCN1CCOCC1)Cc1cccc2ccccc12)C(=O)N[C@@H](CC(C)C)[C@@H](O)c1nccs1 | FALSE

Now look at this one.
// query Given CC(C)C[C@H](NC(=O)[C@@H](CC(=O)N1CCOCC1)Cc1ccccc1)C(=O)N[C@@H](CC(C)C)[C@@H](O)c1nccs1 , state whether its pIC50 is at least 7.
// result FALSE

====

Documented IC50 across a set of molecules
# study target: human kidney renin (Homo sapiens, UniProt P00797)
# Construct: Human renin was prepared from human kidney; from tissue; host or cells: human kidney
# Sequence (P00797 67-406): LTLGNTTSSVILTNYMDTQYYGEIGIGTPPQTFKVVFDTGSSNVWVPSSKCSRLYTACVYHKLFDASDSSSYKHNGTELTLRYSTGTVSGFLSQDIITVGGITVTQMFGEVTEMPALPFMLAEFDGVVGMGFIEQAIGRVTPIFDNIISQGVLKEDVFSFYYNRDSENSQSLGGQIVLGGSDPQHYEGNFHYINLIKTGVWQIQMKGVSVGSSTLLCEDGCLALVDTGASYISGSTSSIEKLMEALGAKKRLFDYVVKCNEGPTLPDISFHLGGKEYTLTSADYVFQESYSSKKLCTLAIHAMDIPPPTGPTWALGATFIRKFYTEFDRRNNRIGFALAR
# assay: Radioimmunoassay Screen for Renin Inhibitors (in vitro angiotensin I generation, quantitated by radioimmunoassay)
# Format: biochemical
# stated conditions: purified human plasma angiotensinogen, pH 6.0, one hour at 37° C., read-out: Renin Inhibiton IC50
Numeric answer only, unit nM assumed.

Guide cases for IC50, answers given:
smiles data | IC50 [nM]
CC(C)C[C@H](NC(=O)[C@@H](CC(=O)NCc1cccnc1)Cc1cccc2ccccc12)C(=O)N[C@@H](CC(C)C)[C@@H](O)c1nccs1 | 170
CC(C)C[C@H](NC(=O)[C@@H](CC(=O)N1CCN(C)CC1)Cc1cccc2ccccc12)C(=O)N[C@@H](CC(C)C)[C@@H](O)c1nccs1 | 440

Next molecule, IC50 to be filled in.
Form: molecule = CC(C)(C)OC(=O)C[C@@H](Cc1cccc2ccccc12)C(=O)N[C@@H](Cc1cnc[nH]1)C(=O)N[C@@H](CC1CCCCC1)[C@@H](O)c1ccccn1 ; IC50 = 4800

====

IC50 reference
# study target: human kidney renin (Homo sapiens, UniProt P00797)
# Construct: Human renin was prepared from human kidney
# assay: Radioimmunoassay Screen for Renin Inhibitors (in vitro angiotensin I generation, quantitated by radioimmunoassay)
# stated conditions: purified human plasma angiotensinogen, pH 6.0, one hour at 37° C., read-out: Renin Inhibiton IC50
Kindly provide the numeric value in nM only, without the unit symbol.

Examples with answers:
smiles data | value
CC(C)C[C@H](NC(=O)[C@@H](CC(=O)NCCCN1CCCC1=O)Cc1ccccc1)C(=O)N[C@@H](CC1CCCCC1)[C@@H](O)c1ccccn1 | 130
CC(=O)N1CCN(C(=O)O[C@@H](Cc2ccccc2)C(=O)N[C@@H](CC(C)C)C(=O)N[C@@H](CC2CCCCC2)[C@@H](O)c2ccco2)CC1 | 42

According to the records, this compound CC(C)C[C@H](NC(=O)[C@@H](CC(=O)NCCc1ccccc1)Cc1cccc2ccccc12)C(=O)N[C@@H](CC(C)C)[C@@H](O)c1nccs1 displays IC50 of 730

The compound listed as CC(C)C[C@H](NC(=O)[C@@H](CC(=O)N1CCOCC1)Cc1cccc2ccccc12)C(=O)N[C@@H](CC1CCCCC1)[C@@H](O)c1ccco1 shows IC50 equal to 8.8

For reference, reported IC50 for O=C(N[C@@H](Cc1cnc[nH]1)C(=O)N[C@@H](CC1CCCCC1)[C@@H](O)c1cccs1)[C@@H](CC(=O)N1CCOCC1)Cc1cccc2ccccc12 stands at 270

Notebook: CC(C)C[C@H](NC(=O)[C@@H](CC(=O)OC(C)(C)C)Cc1ccccc1)C(=O)N[C@@H](CC(C)C)[C@@H](O)c1nccs1 , IC50 read as 6500

====

# study target: human kidney renin (Homo sapiens, UniProt P00797)
# Construct: Human renin was prepared from human kidney
# assay: Radioimmunoassay Screen for Renin Inhibitors (in vitro angiotensin I generation, quantitated by radioimmunoassay)
# stated conditions: purified human plasma angiotensinogen, pH 6.0, one hour at 37° C., read-out: Renin Inhibiton IC50
measured metric: pIC50
Reminder that pIC50 is minus the log10 of a molar concentration.

Some solved cases for reference:
smiles data | pIC50
CC(C)C[C@H](NC(=O)[C@@H](CC(=O)NCCCN1CCCC1=O)Cc1cccc2ccccc12)C(=O)N[C@@H](CC(C)C)[C@@H](O)c1nccs1 | 7.13
CC(C)C[C@H](NC(=O)[C@@H](CC(=O)NCCc1cccn1C)Cc1cccc2ccccc12)C(=O)N[C@@H](CC(C)C)[C@@H](O)c1nccs1 | 7.48

The molecule identified as Cn1cccc1CCNC(=O)C[C@@H](Cc1cccc2ccccc12)C(=O)N[C@@H](Cc1cnc[nH]1)C(=O)N[C@@H](CC1CCCCC1)[C@@H](O)c1nccs1 registered its pIC50 at 6.47

====

# study target: human kidney renin (Homo sapiens, UniProt P00797)
# Construct: Human renin was prepared from human kidney
# Sequence (P00797 67-406): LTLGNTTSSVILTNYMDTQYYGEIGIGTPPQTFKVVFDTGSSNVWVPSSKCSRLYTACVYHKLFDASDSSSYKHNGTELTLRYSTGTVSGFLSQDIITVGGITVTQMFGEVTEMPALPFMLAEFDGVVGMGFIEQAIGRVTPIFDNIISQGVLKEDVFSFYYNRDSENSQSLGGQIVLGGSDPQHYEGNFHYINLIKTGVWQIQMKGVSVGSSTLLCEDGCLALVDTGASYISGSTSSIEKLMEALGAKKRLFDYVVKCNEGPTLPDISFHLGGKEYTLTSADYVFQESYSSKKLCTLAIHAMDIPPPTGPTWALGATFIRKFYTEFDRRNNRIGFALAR
# assay: Radioimmunoassay Screen for Renin Inhibitors (in vitro angiotensin I generation, quantitated by radioimmunoassay)
# stated conditions: purified human plasma angiotensinogen, pH 6.0, one hour at 37° C., read-out: Renin Inhibiton IC50
measured metric: IC50 (nM)
All answers are understood in nM, so give the number only.

These solved cases illustrate the format of a correct answer.
smiles data | units of measure | value
CC(C)C[C@H](NC(=O)[C@H](Cc1c[nH]cn1)NC(=O)[C@@H](CC(=O)NC(C)(C)C)Cc1ccccc1)[C@@H](O)c1nccs1 | nM | 65000
CC(C)C[C@H](NC(=O)[C@@H](CC(=O)OC(C)(C)C)Cc1cccc2ccccc12)C(=O)N[C@@H](CC1CCCCC1)[C@@H](O)c1ccccn1 | nM | 160

Entry CC(C)C[C@H](NC(=O)[C@H](Cc1ccccc1)OC(=O)N1CCOCC1)C(=O)N[C@@H](CC1CCCCC1)[C@@H](O)c1cccs1 : IC50 on human kidney renin (Homo sapiens, UniProt P00797) = 270

====

# study target: human kidney renin (Homo sapiens, UniProt P00797)
# Construct: Human renin was prepared from human kidney
# Sequence (P00797 67-406): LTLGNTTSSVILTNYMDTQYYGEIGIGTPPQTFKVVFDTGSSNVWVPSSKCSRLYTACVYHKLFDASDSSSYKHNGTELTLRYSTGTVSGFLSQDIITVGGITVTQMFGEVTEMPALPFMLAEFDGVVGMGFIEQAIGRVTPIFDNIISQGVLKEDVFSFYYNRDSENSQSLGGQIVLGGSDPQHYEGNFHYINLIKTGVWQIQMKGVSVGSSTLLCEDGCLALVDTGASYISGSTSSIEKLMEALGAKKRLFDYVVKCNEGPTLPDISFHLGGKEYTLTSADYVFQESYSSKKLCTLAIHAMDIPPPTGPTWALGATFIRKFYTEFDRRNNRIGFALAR
# assay: Radioimmunoassay Screen for Renin Inhibitors (in vitro angiotensin I generation, quantitated by radioimmunoassay)
# stated conditions: purified human plasma angiotensinogen, pH 6.0, one hour at 37° C., read-out: Renin Inhibiton IC50
Measured pIC50 accompanies every entry in the list below.
Worth noting: pIC50 values are minus log10 of concentrations stated in mol/L.

Lookup result for COCCNC(=O)O[C@@H](Cc1ccccc1)C(=O)N[C@@H](CC(C)C)C(=O)N[C@@H](CC1CCCCC1)[C@@H](O)c1ccco1 ; measured pIC50: 5.77

Noted for CC(C)C[C@H](NC(=O)[C@@H](CC(=O)N1CCOCC1)Cc1ccccc1)C(=O)N[C@@H](CC1CCCCC1)[C@@H](O)c1nccs1 : its pIC50 reads 4.10
